Cited source: paper PMC8400257

Reported CC50 at 72 h values for the following compounds.
test: In vitro cytotoxicity evaluation HepG2 (MTT); assay type: cell-based, human; settings: human, CC50 HepG2 (µM) ± SD
VALUE KIND: CC50 at 72 h

| COMPOUND | VALUE KIND | RECORDED MEASUREMENT |
| --- | --- | --- |
| C[C@H]1[C@H](OC(=O)CCC(=O)O)O[C@@H]2O[C@@]3(C)CC[C@H]4[C@H](C)CC[C@@H]1[C@@]24OO3 [Artesunate, reference compound] | CC50 at 72 h | 14.7 µM |
| Clc1cccc(Oc2nc3ccccc3nc2C(Cl)(Cl)Cl)c1 [3c] | CC50 at 72 h | 37.2 µM |
| C[C@H]1c2cccc(O)c2C(=O)C2=C(O)[C@]3(O)C(=O)C(C(N)=O)=C(O)[C@@H](N(C)C)[C@@H]3[C@@H](O)[C@@H]21 [Doxycycline, reference compound] | CC50 at 72 h | 20 µM |
| O=S(=O)(c1ccc(Oc2nc3ccccc3nc2C(Cl)(Cl)Cl)cc1)C(F)(F)F [3o] | CC50 at 72 h | 7.2 µM |
| COc1cccc2c1C(=O)c1c(O)c3c(c(O)c1C2=O)C[C@@](O)(C(=O)CO)C[C@@H]3O[C@H]1C[C@H](N)[C@H](O)[C@H](C)O1 [Doxorubicin, reference compound] | CC50 at 72 h | 0.2 µM |
| Clc1ccccc1Oc1nc2ccccc2nc1C(Cl)(Cl)Cl [3b] | CC50 at 72 h | 49.5 µM |
| O=[N+]([O-])c1ccc(Oc2nc3ccccc3nc2C(Cl)(Cl)Cl)cc1 [3i] | CC50 at 72 h | 32 µM |
| N#Cc1ccc(Oc2nc3ccccc3nc2C(Cl)(Cl)Cl)cc1 [3n] | CC50 at 72 h | 16.6 µM |
